system name: human V2 receptor (Homo sapiens)
Sequence (P30518 whole entry): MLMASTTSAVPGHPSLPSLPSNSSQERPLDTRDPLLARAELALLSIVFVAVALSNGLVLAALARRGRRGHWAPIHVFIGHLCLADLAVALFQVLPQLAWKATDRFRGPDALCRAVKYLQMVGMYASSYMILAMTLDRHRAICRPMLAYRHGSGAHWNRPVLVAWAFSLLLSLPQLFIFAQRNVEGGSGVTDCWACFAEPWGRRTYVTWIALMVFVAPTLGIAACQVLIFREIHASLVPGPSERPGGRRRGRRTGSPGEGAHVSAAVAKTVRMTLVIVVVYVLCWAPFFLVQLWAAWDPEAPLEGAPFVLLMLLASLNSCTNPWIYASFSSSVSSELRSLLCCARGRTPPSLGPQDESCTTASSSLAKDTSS
experiment description: Cellular in vitro assay for vasopressin receptor activity, V2 receptor cell line (CRE-luciferase)
measurement context: CHO cell line transfected with human V2 receptor; [Arg8]-vasopressin at EC50 concentration; read-out: IC50 hV2
Counter-ions that a name gives are not always drawn.
outcome measure: IC50 (µM)

Before answering, review these 5 worked examples.
compound: CC(C)(C)NC(=O)c1nc(Cn2nc(-c3ccc(Cl)cc3)n(C[C@H](O)C(F)(F)F)c2=O)nn1-c1ncccc1Cl
system name: human V2 receptor (Homo sapiens)
numeric value: 0.106
--
compound: CC(C)(C)NC(=O)c1nc(Cn2nc(-c3ccc(Cl)cc3)n(C[C@H](O)C(F)(F)F)c2=O)nn1-c1ccccc1Cl
system name: human V2 receptor (Homo sapiens)
numeric value: 0.026
--
compound: O=C(NCC(F)(F)F)c1nc(Cn2nc(-c3ccc(Cl)cc3)n(C[C@H](O)C(F)(F)F)c2=O)nn1-c1ncccc1Cl
system name: human V2 receptor (Homo sapiens)
numeric value: 0.0283
--
compound: CC(C)(O)CNC(=O)c1nc(Cn2nc(-c3ccc(Cl)cc3)n(C[C@H](O)C(F)(F)F)c2=O)nn1-c1cnccc1Cl
system name: human V2 receptor (Homo sapiens)
numeric value: 0.023
--
compound: CC(C)(O)CNC(=O)c1nc(Cn2nc(-c3ccc(Cl)cc3)n(C[C@H](O)C(F)(F)F)c2=O)nn1-c1ncccc1C(F)(F)F
system name: human V2 receptor (Homo sapiens)
numeric value: 0.0385

[P] O=C(c1nc(Cn2nc(-c3ccc(Cl)cc3)n(C[C@H](O)C(F)(F)F)c2=O)nn1CCC(F)(F)F)N1CCOCC1
[Q] CC1(C)CN(C(=O)c2nc(Cn3nc(-c4ccc(Cl)cc4)n(C[C@H](O)C(F)(F)F)c3=O)nn2-c2ncccc2C(F)(F)F)CCN1 [Example 49, hydrochloride]
[ask] Lower value of IC50 belongs to which: P or Q ? Reply with the label of the item you choose.
[reply] Q
(Q: 0.478 µM, P: 0.73 µM)

[I] O=C(c1nc(Cn2nc(-c3ccc(Cl)cc3)n(C[C@H](O)C(F)(F)F)c2=O)nn1-c1ccccc1Cl)N1CCOCC1
[II] CNC(=O)c1nc(Cn2nc(-c3ccc(Cl)cc3)n(C[C@H](O)C(F)(F)F)c2=O)nn1-c1ccccc1OC
[ask] Task for the reader: decide whether I or II has the larger IC50. Reply with the label of the item you choose.
[reply] I
(I: 0.0293 µM, II: 0.00829 µM)
